assay: Liver microsome metabolic stability (LMS) assay, cynomolgus monkey; conditions: cynomolgus monkey, microsomes
measured-attribute: CLint scaled at 1 μM (mL/min/kg)
Give a bare numeral; the unit mL/min/kg is implied.

-- ask Look at this molecule and give its reported CLint scaled at 1 μM. C[C@]12CC[C@H]3[C@@H](CCC4=CC(=O)CC[C@@]43C)[C@@H]1CC[C@@H]2O [Ref. 4, Testosterone, reference compound]
-- reply 206

* * *

biological target: PRMT5/MEP50 (Homo sapiens (Human)); assay: MTase-Glo methyl transferase assay (PRMT5 inhibition); type: biochemical; details: 50 nM PRMT5/MEP50, 25 μM SAM, 5 μM Histone H4 peptide (1-21), read-out: IC50 for PRMT5 inhibiting
Sequence (O14744 whole entry): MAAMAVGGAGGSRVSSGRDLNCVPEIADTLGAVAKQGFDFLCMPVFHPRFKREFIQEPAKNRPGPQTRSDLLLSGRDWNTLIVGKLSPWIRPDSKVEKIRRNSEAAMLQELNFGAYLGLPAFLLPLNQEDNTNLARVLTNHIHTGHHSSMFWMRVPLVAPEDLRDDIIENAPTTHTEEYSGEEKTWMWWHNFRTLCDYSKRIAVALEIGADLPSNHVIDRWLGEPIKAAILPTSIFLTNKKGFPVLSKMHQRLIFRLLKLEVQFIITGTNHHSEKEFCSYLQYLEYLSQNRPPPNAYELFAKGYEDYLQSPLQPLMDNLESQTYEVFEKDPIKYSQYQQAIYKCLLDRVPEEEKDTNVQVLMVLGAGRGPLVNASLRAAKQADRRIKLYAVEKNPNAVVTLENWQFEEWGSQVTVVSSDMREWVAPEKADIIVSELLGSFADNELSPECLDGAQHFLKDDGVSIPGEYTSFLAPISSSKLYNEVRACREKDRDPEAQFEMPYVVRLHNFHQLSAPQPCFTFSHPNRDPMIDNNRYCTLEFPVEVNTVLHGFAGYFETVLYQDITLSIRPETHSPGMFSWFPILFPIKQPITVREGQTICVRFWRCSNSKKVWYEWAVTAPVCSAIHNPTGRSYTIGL
Sequence (Q9BQA1 whole entry partner): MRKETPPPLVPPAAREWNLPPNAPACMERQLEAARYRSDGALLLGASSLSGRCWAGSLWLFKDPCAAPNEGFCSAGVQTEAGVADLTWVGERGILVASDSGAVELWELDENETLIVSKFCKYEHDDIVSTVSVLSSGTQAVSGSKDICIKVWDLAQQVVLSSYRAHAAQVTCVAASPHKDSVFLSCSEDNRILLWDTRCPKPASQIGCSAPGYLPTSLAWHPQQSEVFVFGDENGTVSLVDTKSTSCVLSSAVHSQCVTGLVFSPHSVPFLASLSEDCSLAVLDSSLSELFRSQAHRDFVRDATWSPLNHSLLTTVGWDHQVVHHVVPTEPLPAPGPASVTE
measured-attribute: IC50 (nM)
Give the value, in units of nM, as a plain number.

compound | readout-units | reading
Cc1ncn2c1c(N)nc1ccc(C(=O)N(Cc3ccc(C(F)(F)F)cn3)[C@H](C)c3ncccn3)cc12 | nM | 104
C[C@H](c1ncccn1)N(Cc1ccc(C(F)(F)F)cn1)C(=O)c1cc2c(cn1)nc(N)c1cncn12 | nM | 54

Now look at this one.
-- ask Suppose we examine the molecule C[C@H](c1ncccn1)N(Cc1ccc(C(F)(F)F)cn1)C(=O)c1ccc2nc(N)n3cncc3c2c1 ; what IC50 value has been reported?
-- reply 26
